# System: MV-4-11 (human, Acute Myeloid Leukemia cell line) cells
# Assay protocol: Cell growth inhibition assay, GI50 of MV-4-11
# Type: cell-based
# Measurement setup: Homo sapiens, MV4-11, 72 h, MV-4-11 cells
# Description: The anti-proliferative activity (cell growth inhibition assay) of the compounds according to the present invention against AML (Acute Myeloid Leukemia) cancer cells was measured. […] The lower the GI50 value, the higher the anti-proliferative activity. […] Also, the background absorbance was measured during the treatment with the test compounds by replacing the test compound with IMDM in the negative control plate. […] The GI50 values were calculated using a Prism 3.0 program.
Measured property: GI50 (nM)

Compound	Result number
C=CCN1CC(=O)N2[C@@H](Cc3ccc(O)cc3)C(=O)N(Cc3cccc4c(-c5ccc(C(=O)NNC)cc5)cn(C)c34)C[C@@H]2N1C(=O)NCc1ccccc1	1.4
C=CCN1CC(=O)N2[C@@H](Cc3ccc(O)cc3)C(=O)N(Cc3cccc4c(-c5ccc(C(=O)Nc6ccc(CN)cc6)cc5)cn(C)c34)C[C@@H]2N1C(=O)NCc1ccccc1	2
C=CCN1CC(=O)N2[C@@H](Cc3ccc(O)cc3)C(=O)N(Cc3cccc4c(C(=O)N(C)CC(C)(C)CO)cn(C)c34)C[C@@H]2N1C(=O)NCc1ccccc1	2
C=CCN1CC(=O)N2C(CN(Cc3cccc4c(C(=O)Nc5ccc(SC)cc5)cn(C)c34)C(=O)[C@@H]2Cc2ccc(O)cc2)N1C(=O)NCc1ccccc1 (some centres unmarked)	10.5
C=CCN1CC(=O)N2[C@@H](Cc3ccc(O)cc3)C(=O)N(Cc3cccc4c(-c5ccc(NC(=O)Nc6ccc(OC)cc6)nc5)cn(C)c34)C[C@@H]2N1C(=O)NCc1ccccc1	4.9
C=CCN1CC(=O)N2[C@@H](Cc3ccc(O)cc3)C(=O)N(Cc3cccc4c(C(=O)N5CCN(C)CC5)cn(C)c34)C[C@@H]2N1C(=O)NCc1ccccc1	11.2
C=CCN1CC(=O)N2[C@@H](Cc3ccc(O)cc3)C(=O)N(Cc3cccc4c(-c5cnc6ccccc6c5)cn(C)c34)C[C@@H]2N1C(=O)NCc1ccccc1	9.7
C=CCN1CC(=O)N2[C@@H](Cc3ccc(O)cc3)C(=O)N(Cc3cccc4c(-c5ccc(C#N)cc5)cn(C)c34)C[C@@H]2N1C(=O)NCc1ccccc1	17.8
C=CCN1CC(=O)N2C(Cc3ccc(O)cc3)C(=O)N(Cc3cccc4c(C(=O)Nc5ccc(N6CCN(C(C)=O)CC6)nc5)cn(C)c34)CC2N1C(=O)NCc1ccccc1 (centres unmarked)	1.3
C=CCN1CC(=O)N2[C@@H](Cc3ccc(O)cc3)C(=O)N(Cc3cccc4c(C(=O)Nc5ccc(N6CCCN(C)CC6)nc5)cn(C)c34)C[C@@H]2N1C(=O)NCc1ccccc1	1.3
C=CCN1CC(=O)N2[C@@H](Cc3ccc(O)cc3)C(=O)N(Cc3cccc4c(-c5cccc(C(=O)N6CCOCC6)c5)cn(C)c34)C[C@@H]2N1C(=O)NCc1ccccc1	1.8

From: patent US8940739B2
